Target: T1, integrin αVβ5 (UniProt P06756 31-992; P18084 24-719)
T1 construct: Coated on the ELISA plate
T1 sequence (P06756 31-992, chain 1 of 2): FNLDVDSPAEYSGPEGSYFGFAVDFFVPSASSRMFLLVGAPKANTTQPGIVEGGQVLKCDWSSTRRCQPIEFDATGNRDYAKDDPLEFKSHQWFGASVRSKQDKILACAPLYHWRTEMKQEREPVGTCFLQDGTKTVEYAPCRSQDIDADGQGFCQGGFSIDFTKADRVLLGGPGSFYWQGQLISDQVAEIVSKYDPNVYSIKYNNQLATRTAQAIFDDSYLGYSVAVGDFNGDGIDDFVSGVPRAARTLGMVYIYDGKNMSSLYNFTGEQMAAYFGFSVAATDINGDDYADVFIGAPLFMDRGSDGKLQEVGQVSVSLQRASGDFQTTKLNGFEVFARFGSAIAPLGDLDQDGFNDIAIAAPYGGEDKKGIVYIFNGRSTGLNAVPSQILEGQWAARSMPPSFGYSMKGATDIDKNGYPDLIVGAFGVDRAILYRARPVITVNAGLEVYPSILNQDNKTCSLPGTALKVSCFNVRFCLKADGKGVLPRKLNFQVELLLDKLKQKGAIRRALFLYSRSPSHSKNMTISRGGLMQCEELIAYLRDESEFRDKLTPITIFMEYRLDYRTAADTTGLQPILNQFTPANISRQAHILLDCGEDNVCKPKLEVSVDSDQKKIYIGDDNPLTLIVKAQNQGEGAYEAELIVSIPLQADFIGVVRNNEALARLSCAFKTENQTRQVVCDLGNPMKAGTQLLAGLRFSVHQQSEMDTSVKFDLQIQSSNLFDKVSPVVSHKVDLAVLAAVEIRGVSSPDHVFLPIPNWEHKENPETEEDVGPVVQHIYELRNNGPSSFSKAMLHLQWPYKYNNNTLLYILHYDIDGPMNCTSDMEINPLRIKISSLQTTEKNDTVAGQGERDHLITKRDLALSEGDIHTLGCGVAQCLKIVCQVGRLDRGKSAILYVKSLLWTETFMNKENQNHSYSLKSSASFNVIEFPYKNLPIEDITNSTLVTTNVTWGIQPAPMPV
T1 sequence (P18084 24-719, chain 2 of 2): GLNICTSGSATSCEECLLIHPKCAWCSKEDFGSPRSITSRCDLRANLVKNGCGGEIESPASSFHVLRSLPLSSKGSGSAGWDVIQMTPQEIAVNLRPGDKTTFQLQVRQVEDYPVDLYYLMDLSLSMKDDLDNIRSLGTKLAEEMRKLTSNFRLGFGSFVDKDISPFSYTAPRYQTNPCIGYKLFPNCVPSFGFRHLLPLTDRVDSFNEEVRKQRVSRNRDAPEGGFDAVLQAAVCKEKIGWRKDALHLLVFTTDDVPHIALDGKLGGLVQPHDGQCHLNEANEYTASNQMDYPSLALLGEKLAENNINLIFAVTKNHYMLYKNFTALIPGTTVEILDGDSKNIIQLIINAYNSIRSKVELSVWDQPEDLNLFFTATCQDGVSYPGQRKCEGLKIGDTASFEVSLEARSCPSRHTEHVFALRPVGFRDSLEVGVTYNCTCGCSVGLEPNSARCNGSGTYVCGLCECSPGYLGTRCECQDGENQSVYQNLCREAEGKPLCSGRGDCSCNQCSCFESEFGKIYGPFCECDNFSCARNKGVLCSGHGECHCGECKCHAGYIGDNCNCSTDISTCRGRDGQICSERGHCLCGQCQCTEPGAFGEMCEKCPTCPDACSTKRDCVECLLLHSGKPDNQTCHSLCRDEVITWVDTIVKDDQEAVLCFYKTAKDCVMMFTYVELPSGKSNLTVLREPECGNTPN
Experiment: ELISA, integrin coated, anti-MICA-HRP
Below, each entry is listed with its recorded signal/ng.
measurement type: signal/ng (signal/ng)

soluble MICA generated by pKK35 (His10sp in loop 3) (designed binder) EPHSLRYNLTVLSWDGSVQSGFLTEVHLDGQPFLRCDRQKCRAKPQGQWAEDVLGNKTWDRETRDLTGNGKDLRMTLAHIKDQKEGLHSLQEIRVCEIHEDNSTRSSQHFYYDGELFLSQNLETKEWTMPQSSRAQTLAMNVRNFLKEDAMKTKTHYHAMHADCLQELRRYLKSGVVLRRTVPPMVNVTRSEASEGNITVTCRASGFYPWNITLSWRQDGVSLSHDTQQWGDVLPDGNGTYQTWVATRISGGSGGGSHHHHHHHHHHSGGSGGGCYMEHSGNHSTHPVPSGK: 2.31
soluble MICA generated by pKK37 (loop 3.2 in loop 1) (designed binder) HHHHHHEPHSLRYNLTVLSWDGSVQSGFLTEVHLDGQPFLRCDRQKCRAKPQGQWAEDVLGNKTWDRETRDLTGNGKDLRMTLAHIKDQKEGLHSLQEIRVCEIHEDNSTRSSQHFYYDGELFLSQNLETEEWTMPQSSRAQTLAMNVRNFLKEDAMKTKTHYHAMHADCLQELRRYLKSGVVLRRTVPPMVNVTRTSRGDHPRTQVTCRASGFYPWNITLSWRQDGVSLSHDTQQWGDVLPDGNGTYQTWVATRICQGEEQRFTCYMEHSGNHSTHPVPSGK: 22.4
soluble MICA generated by pKK36 (loop 3.1 in loop 1) (designed binder) HHHHHHEPHSLRYNLTVLSWDGSVQSGFLTEVHLDGQPFLRCDRQKCRAKPQGQWAEDVLGNKTWDRETRDLTGNGKDLRMTLAHIKDQKEGLHSLQEIRVCEIHEDNSTRSSQHFYYDGELFLSQNLETEEWTMPQSSRAQTLAMNVRNFLKEDAMKTKTHYHAMHADCLQELRRYLKSGVVLRRTVPPMVNVTSRGDHPRTQVTCRASGFYPWNITLSWRQDGVSLSHDTQQWGDVLPDGNGTYQTWVATRICQGEEQRFTCYMEHSGNHSTHPVPSGK: 18.1
soluble MICA generated by pKK41 (loop 5.2 in loop 1) (designed binder) HHHHHHEPHSLRYNLTVLSWDGSVQSGFLTEVHLDGQPFLRCDRQKCRAKPQGQWAEDVLGNKTWDRETRDLTGNGKDLRMTLAHIKDQKEGLHSLQEIRVCEIHEDNSTRSSQHFYYDGELFLSQNLETEEWTMPQSSRAQTLAMNVRNFLKEDAMKTKTHYHAMHADCLQELRRYLKSGVVLRRTVPPMVNVTRGDTFTQSVTCRASGFYPWNITLSWRQDGVSLSHDTQQWGDVLPDGNGTYQTWVATRICQGEEQRFTCYMEHSGNHSTHPVPSGK: 22.4
soluble MICA generated by pKK50 (extended loop 5.1sp in loop 3) (designed binder) EPHSLRYNLTVLSWDGSVQSGFLTEVHLDGQPFLRCDRQKCRAKPQGQWAEDVLGNKTWDRETRDLTGNGKDLRMTLAHIKDQKEGLHSLQEIRVCEIHEDNSTRSSQHFYYDGELFLSQNLETKEWTMPQSSRAQTLAMNVRNFLKEDAMKTKTHYHAMHADCLQELRRYLKSGVVLRRTVPPMVNVTRSEASEGNITVTCRASGFYPWNITLSWRQDGVSLSHDTQQWGDVLPDGNGTYQTWVATRISGGSGGGSVTRGDTFTQSSGGSGGGCYMEHSGNHSTHPVPSGK: 7.73
